target: NMDAR2B (Homo sapiens, UniProt Q13224); construct: expressed in transfected cells; host or cells: HEK cells (membrane extract); assay: NMDAR agonist assay, [3H]MK-801 binding, NMDAR2B expressing HEK cell membranes; format: biochemical; conditions: 50 μM glutamate
Sequence (Q13224 27-1484, species assumed, other chains not shown): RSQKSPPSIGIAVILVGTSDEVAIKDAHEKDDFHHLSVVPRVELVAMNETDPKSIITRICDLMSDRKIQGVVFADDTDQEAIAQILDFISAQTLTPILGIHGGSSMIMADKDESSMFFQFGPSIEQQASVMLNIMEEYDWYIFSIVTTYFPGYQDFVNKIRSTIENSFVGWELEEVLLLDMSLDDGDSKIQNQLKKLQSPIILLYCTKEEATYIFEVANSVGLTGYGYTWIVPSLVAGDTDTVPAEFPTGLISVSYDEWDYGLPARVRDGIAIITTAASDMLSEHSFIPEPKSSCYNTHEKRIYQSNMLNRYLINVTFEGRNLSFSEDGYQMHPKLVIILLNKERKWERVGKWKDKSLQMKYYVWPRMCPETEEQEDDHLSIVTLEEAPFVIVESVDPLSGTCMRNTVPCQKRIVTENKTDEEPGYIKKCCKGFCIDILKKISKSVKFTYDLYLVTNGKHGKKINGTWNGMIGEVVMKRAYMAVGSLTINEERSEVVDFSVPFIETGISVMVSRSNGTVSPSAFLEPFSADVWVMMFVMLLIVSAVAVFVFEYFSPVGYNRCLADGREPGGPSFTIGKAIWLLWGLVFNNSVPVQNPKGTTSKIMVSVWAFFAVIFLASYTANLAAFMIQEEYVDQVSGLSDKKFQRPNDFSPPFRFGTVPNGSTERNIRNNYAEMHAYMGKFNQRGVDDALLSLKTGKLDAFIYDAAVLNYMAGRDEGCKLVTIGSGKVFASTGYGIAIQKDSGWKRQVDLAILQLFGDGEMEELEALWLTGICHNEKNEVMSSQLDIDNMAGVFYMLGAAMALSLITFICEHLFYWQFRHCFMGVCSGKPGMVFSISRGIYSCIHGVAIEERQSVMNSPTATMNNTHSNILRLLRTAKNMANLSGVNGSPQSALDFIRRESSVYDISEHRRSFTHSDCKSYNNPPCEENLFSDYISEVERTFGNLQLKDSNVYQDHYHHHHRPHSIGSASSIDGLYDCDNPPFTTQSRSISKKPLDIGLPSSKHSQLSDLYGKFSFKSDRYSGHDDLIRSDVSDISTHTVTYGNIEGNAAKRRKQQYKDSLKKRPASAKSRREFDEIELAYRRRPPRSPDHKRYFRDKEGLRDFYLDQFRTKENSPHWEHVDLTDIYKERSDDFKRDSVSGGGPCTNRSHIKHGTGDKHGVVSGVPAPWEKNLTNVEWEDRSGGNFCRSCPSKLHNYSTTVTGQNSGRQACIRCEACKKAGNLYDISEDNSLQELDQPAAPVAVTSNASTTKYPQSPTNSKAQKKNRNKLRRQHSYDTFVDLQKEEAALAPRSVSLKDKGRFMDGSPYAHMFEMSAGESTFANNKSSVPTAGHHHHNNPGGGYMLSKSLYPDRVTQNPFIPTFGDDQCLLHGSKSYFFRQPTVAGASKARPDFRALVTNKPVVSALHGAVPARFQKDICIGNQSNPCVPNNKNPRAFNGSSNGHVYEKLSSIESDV
readout_label: NMDAR2B: % maximal [3H]MK-801 binding relative to 1 mM glycine

See these solved cases before continuing.
[
  {
    "molecule": "CN1CCC2(CC1=O)CN(Cc1ccccc1)C2=O (single isomer, unassigned) [CX]",
    "result": "+ (<100%=+)"
  },
  {
    "molecule": "CC1C(N)C(=O)N(C)C12CN(Cc1ccccc1)C2=O (single isomer, unassigned) [CH]",
    "result": "− (−=0)"
  },
  {
    "molecule": "CC1C(N)C(=O)N(C)C12CN(Cc1ccccc1)C2=O (single isomer, unassigned) [CG]",
    "result": "+ (<100%=+)"
  },
  {
    "molecule": "CCN1CCC2(CC1=O)CN(Cc1ccc(OC)cc1)C2=O (single isomer, unassigned) [CL]",
    "result": "+ (<100%=+)"
  },
  {
    "molecule": "CC1CC(=O)N(c2ccc(F)cc2)C12CN(CC(N)=O)C2=O (single isomer, unassigned) [CE]",
    "result": "− (−=0)"
  }
]

Here is another molecule to look at.
stdin: Param readout= NMDAR2B: % maximal [3H]MK-801 binding relative to 1 mM glycine; system= NMDAR2B (Homo sapiens, UniProt Q13224); entry= C[C@@H](O)[C@@H](C(=O)NCc1ccccc1)N1CC2(CCNC(=O)C2)C1=O (single isomer, unassigned) [CB] ; returns value.
stdout: + (<100%=+)

====

Target: NMDAR2B (Homo sapiens, UniProt Q13224)
Construct: expressed in transfected cells; host or cells: HEK cells (membrane extract)
Assay: NMDAR agonist assay, [3H]MK-801 binding, NMDAR2B expressing HEK cell membranes
Type: biochemical
Conditions: 50 μM glutamate, read-out: NMDAR2B: % maximal [3H]MK-801 binding relative to 1 mM glycine
Procedure: Assays were conducted as described by Moskal et al., “GLYX-13: a monoclonal antibody-derived peptide that acts as an N-methyl-D-aspartate receptor modulator,” Neuropharmacology, 49, 1077-87, 2005. These studies were designed to determine if the test compounds act to facilitate NMDAR activation in NMDAR2A, NMDAR2B, NMDAR2C or NMDAR2D expressing HEK cell membranes as measured by increases in [^3H]MK-801 binding. […]
Each item that follows carries a reported Emax.
Field format: number, assumed %, no unit text.

stdin: Find the recorded Emax belonging to COc1ccc(CN2CC3(CCNC(=S)C3)C2=S)cc1 (single isomer, unassigned) [CO] and report it.
stdout: 0

stdin: Find the recorded Emax belonging to CN1CC2(CCNC(=O)C2)C1=O (single isomer, unassigned) [DG] and report it.
stdout: 0

stdin: Find the recorded Emax belonging to COc1ccc(CN2CC3(CCN(CC(C)C)C(=O)C3)C2=O)cc1 (single isomer, unassigned) [CT] and report it.
stdout: 0

====

target: NMDAR2A (Homo sapiens); construct: expressed in transfected cells; host or cells: HEK cells (membrane extract); assay: NMDAR agonist assay, [3H]MK-801 binding, NMDAR2A expressing HEK cell membranes; format: biochemical; conditions: 50 μM glutamate
Sequence (Q12879 23-1464, species assumed, other chains not shown): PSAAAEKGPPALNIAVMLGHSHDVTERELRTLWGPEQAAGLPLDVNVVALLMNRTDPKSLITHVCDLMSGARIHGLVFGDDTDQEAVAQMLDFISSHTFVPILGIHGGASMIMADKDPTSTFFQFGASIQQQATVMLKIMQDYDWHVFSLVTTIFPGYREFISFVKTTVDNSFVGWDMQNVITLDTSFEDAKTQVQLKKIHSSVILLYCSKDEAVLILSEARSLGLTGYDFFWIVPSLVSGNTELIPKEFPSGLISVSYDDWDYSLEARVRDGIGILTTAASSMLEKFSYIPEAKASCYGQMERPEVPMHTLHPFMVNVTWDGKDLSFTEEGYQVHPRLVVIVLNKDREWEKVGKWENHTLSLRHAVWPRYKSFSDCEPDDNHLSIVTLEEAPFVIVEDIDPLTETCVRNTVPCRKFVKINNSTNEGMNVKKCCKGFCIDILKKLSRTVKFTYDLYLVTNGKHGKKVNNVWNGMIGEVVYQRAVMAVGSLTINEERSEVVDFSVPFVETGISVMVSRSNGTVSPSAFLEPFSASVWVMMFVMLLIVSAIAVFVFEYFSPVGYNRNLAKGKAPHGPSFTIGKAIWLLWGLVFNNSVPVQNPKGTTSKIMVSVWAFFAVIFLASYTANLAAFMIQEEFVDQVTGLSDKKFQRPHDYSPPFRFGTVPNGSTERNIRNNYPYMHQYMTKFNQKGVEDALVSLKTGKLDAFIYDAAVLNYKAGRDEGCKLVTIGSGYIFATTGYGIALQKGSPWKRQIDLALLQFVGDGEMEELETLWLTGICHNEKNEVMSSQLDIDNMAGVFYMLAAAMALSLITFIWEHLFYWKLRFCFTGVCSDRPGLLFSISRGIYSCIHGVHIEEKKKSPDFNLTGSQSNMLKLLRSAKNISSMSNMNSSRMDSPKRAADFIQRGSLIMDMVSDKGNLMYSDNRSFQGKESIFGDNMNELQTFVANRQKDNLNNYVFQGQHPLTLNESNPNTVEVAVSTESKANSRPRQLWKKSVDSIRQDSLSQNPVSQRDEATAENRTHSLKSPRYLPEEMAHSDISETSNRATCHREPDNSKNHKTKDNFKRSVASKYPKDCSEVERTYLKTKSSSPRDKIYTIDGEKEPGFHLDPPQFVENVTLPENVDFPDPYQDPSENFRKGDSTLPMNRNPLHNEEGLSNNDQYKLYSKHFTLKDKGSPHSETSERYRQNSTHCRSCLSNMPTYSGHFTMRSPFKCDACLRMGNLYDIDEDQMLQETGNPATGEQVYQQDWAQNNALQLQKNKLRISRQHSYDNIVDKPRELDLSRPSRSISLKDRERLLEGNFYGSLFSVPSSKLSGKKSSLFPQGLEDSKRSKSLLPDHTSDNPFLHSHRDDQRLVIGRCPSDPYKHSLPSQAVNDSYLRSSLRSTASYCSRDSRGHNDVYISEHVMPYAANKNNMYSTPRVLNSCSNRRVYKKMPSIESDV
readout_label: NMDAR2A: % maximal [3H]MK-801 binding relative to 1 mM glycine

See these solved cases before continuing.
[
  {
    "compound": "CC1C(N)C(=O)N(C)C12CN(Cc1ccccc1)C2=O (single isomer, unassigned)",
    "measurement_target": "NMDAR2A (Homo sapiens)",
    "result": "− (−=0)"
  },
  {
    "compound": "C[C@@H](O)[C@@H](C(=O)NCc1ccccc1)N1CC2(CCNC(=O)C2)C1=O (single isomer, unassigned)",
    "measurement_target": "NMDAR2A (Homo sapiens)",
    "result": "− (−=0)"
  },
  {
    "compound": "CC1CC(=O)N(c2ccc(F)cc2)C12CN(CC(N)=O)C2=O (single isomer, unassigned)",
    "measurement_target": "NMDAR2A (Homo sapiens)",
    "result": "− (−=0)"
  },
  {
    "compound": "CCN1CCC2(CC1=O)CN(Cc1ccc(OC)cc1)C2=O (single isomer, unassigned) [CL]",
    "measurement_target": "NMDAR2A (Homo sapiens)",
    "result": "+ (<100%=+)"
  },
  {
    "compound": "CNC(=O)[C@H]([C@@H](C)O)N1CC2(CCNC(=O)C2)C1=O (single isomer, unassigned)",
    "measurement_target": "NMDAR2A (Homo sapiens)",
    "result": "− (−=0)"
  },
  {
    "compound": "CN1CCC2(CC1=O)CN(Cc1ccccc1)C2=O (single isomer, unassigned)",
    "measurement_target": "NMDAR2A (Homo sapiens)",
    "result": "+ (<100%=+)"
  },
  {
    "compound": "CC1CC(=O)N(c2ccc(F)cc2)C12CN(Cc1ccccc1)C2=O (single isomer, unassigned)",
    "measurement_target": "NMDAR2A (Homo sapiens)",
    "result": "− (−=0)"
  },
  {
    "compound": "CCN1CCC2(CC1=O)CN(Cc1ccc(OC)cc1)C2=O (single isomer, unassigned) [CK]",
    "measurement_target": "NMDAR2A (Homo sapiens)",
    "result": "− (−=0)"
  }
]

Here is another compound to look at.
stdin: Find the recorded NMDAR2A: % maximal [3H]MK-801 binding relative to 1 mM glycine belonging to CC1CC(=O)N(c2ccc(F)cc2)C12CN([C@H](C(N)=O)[C@@H](C)O)C2=O (single isomer, unassigned) and report it.
stdout: + (<100%=+)
